experiment: inhibition of RSV-induced cytopathic effect – HEp-2 cells, primary 10 µM value included (AID 2391); conditions: at 10 µM, active compounds read high
Out of some 310,000 compounds screened, about 410 (0.13%) were called active. Roughly 2% stayed inconclusive and do not appear here. These entries were drawn from the full list. Entries with a potency or affinity are not part of this list.
READOUT: CPE inhibition (%)

> print(dat)
                                    compound  unit.of.measurement  reported.result
 1  CCOc1ccc(Br)cc1S(=O)(=O)Nc1ccc(C(=O)OCC(=O)Nc2ccc(C#N)cc2)cc1                    %             2.94
 2          Cc1cc(=O)oc(C)c1C(=O)NCCc1ccccc1                    %            -0.07
 3  C/C(=N\NC(=O)c1ccc(NS(=O)(=O)c2cccs2)cc1)c1ccccc1                    %             -0.3
 4  Cc1cc(C)cc(NC(=O)c2ccc(CNc3c(N4CCCC4)c(=O)c3=O)cc2)c1                    %             2.89
 5    O=[N+]([O-])c1ccc(-c2ccc(/C=N/O)o2)cc1                    %             11.6
 6  Cc1cc(C(=O)N2CCCC(N3CCN(c4cccc(Cl)c4)CC3)C2)nn1C (configuration not stated)                    %            -0.33
 7     COc1ccc2cc3cc(C(=O)N4CCCCCC4)oc3nc2c1                    %             5.67
 8            Cc1ccc(Nc2nc(=O)c3cccnc3s2)cc1                    %              4.1
 9       CC(=O)c1ccc(Nc2nc(=O)c3cccnc3s2)cc1                    %            -0.53
10      Cc1ccc2cc3cc(C(=O)NC4CCCCC4)oc3nc2c1                    %             4.34
11      CCCCN(C)C(=O)c1cc2cc3ccc(OC)cc3nc2o1                    %             12.1
12  COc1ccc2cc3cc(C(=O)N4CCCC(C)C4)oc3nc2c1 (configuration not stated)                    %            -0.12
13       CC(=O)c1cccc(Nc2nc(=O)c3cccnc3s2)c1                    %            -1.05
14  O=C(c1cccc(Cl)c1)C1CCCN(C(=O)c2ccoc2)C1 (configuration not stated)                    %            -0.58
15  CN(NC(=O)c1cccc(Cl)c1)c1nc(-c2ccccc2)nnc1C(F)(F)F                    %             3.22
16  O=c1cc(CN2CCN(C/C=C/c3ccccc3)CC2)c2cc(O)c(-c3ccccc3)cc2o1                    %             2.21
17  O=C(Nc1nnc(C2=COCCO2)o1)c1ccc([N+](=O)[O-])cc1                    %             0.76

###

experiment: inhibition of RSV-induced cytopathic effect – HEp-2 cells, primary 10 µM value included (AID 2391); settings: at 10 µM, active compounds read high
Screen size: about 310,000 compounds; about 410 (0.13%) were called active. About 2% were inconclusive and are not listed. Only a sample is shown. Results with a measured potency or affinity are listed apart.
Measured CPE inhibition accompanies every entry in the list below.
READOUT: CPE inhibition (%)

> print(dat)
                                    molecule  unit.of.measurement  reported.result
 1  CCOC(=O)/C(C#N)=C/c1c(N2CCN(C)CC2)nc2c(C)cccn2c1=O                    %             1.42
 2  Cc1ccccc1COn1nnc2ccc(S(=O)(=O)N3CCOCC3)cc21                    %            -1.48
 3    C/C(N)=C(/C#N)C(=O)CSc1cc(C)c2ccccc2n1                    %             12.3
 4  CC(=O)Nc1ccc(OCC(O)Cn2nc(C)nc2C)cc1 (configuration not stated)                    %            -1.49
 5  Cc1cc([N+](=O)[O-])cc(C)c1OCC(=O)N/N=C/c1ccc(OC(=O)c2ccccc2)cc1                    %             10.1
 6  CCn1c(=O)n(CC(=O)Nc2ccc(F)cc2)c(=O)c2ccccc21                    %             2.36
 7             CC(=O)NCCN=C(C)c1sc2ccccc2c1O                    %             2.52
 8           Cc1cc(NCCCO)n2nc(-c3cccs3)cc2n1                    %                9
 9              Cc1cc(C)c2nc(SCC#N)cc(C)c2c1                    %             11.1
10  NS(=O)(=O)c1ccc(CCNC(=O)CSc2nc3ccccc3c(=O)n2CCC(=O)N2CCCCC2)cc1                    %             0.56
11   O=C(NCc1cccs1)C1CCN(C(=O)NCc2ccccc2)CC1                    %             0.51
12  CCOc1cccc2c1OC1(C)CC2NC(=O)N1c1ccc(OC)cc1 (configuration not stated)                    %             0.71

###

experiment: inhibition of RSV-induced cytopathic effect – HEp-2 cells, primary 10 µM value included (AID 2391); conditions: at 10 µM, active compounds read high
The whole screen tested about 310,000 compounds, of which about 410 (0.13%) were called active. Roughly 2% stayed inconclusive and do not appear here. Only a sample is shown. Measured potencies and affinities stand elsewhere.
Measured CPE inhibition by item
READOUT: CPE inhibition (%)

> print(dat)
                                    molecule  reported.result
 1  Cc1c(C(=O)NCC2CCCO2)oc2ccc(Br)cc12 (stereo not drawn)             3.18
 2  COCCn1c(-c2ccc(Cl)cc2)nc2c(c(=O)c3ccccc3n2C)c1=O             8.68
 3  Cc1ccc2c(C)c(C(=O)N3CCN(Cc4ccccn4)CC3)oc2c1C             1.72
 4      Cc1ccc2[nH]c(-c3cccc(F)c3)cc(=O)c2c1            -0.29
 5  O=C(N/N=C/c1ccc2c(c1)OCO2)c1cc(-c2ccccc2)nc2ccccc12             1.93
 6  COc1cc(C(=O)NCCC(=O)NC2CCCc3ccccc32)cc(OC)c1OC (stereo not drawn)             0.19
 7  CC(=O)N1c2ccccc2N(Cc2ccc(C)cc2C)C(=O)C1(C)C             5.65
 8  COc1ccc(Cn2c(-c3ccco3)nc3c(c(=O)c4ccccc4n3C)c2=O)cc1             12.4
 9  O=C(Cn1ncc2c1-c1ccccc1OC2)N1CCN(Cc2ccccc2)CC1            -1.42
10  O=C1c2ccccc2C(=O)N1CCc1csc(-c2ccc(F)cc2)n1             2.17
11           Cc1ccc2nc(-c3cccc(N)c3)[nH]c2c1             2.27
12  Cc1ccc2c(Cl)cc(Cl)c(OCC(=O)Nc3ccc(C)c(S(=O)(=O)N(C)C)c3)c2n1             1.79
13       COc1ccc(C)cc1NC(=O)CSc1nnnn1C1CCCC1             2.31

###

assay: inhibition of RSV-induced cytopathic effect – HEp-2 cells, primary 10 µM value included (AID 2391); conditions: at 10 µM, active compounds read high
Hit rate of the full screen: of about 310,000 compounds, about 410 (0.13%) were called active. Another 2% or so got no clear call; they are omitted. A selection follows. Entries with a potency or affinity are not part of this list.
Each entry below lists one item and its recorded CPE inhibition value.
READOUT: CPE inhibition (%)

> print(dat)
                                    molecule         readout  reported.result
 1  CC(=O)/C(C#N)=C1\NC(=O)C(Cc2ccc(F)cc2)S1 (configuration not stated)  CPE inhibition             12.6
 2             COc1cc(C=O)ccc1OCc1cccc(Br)c1  CPE inhibition             1.17
 3  Cc1cccc(COCC(CC(C)C)N2CCN(C(=O)c3ccc(C(C)(C)C)cc3)CCC2=O)c1 (configuration not stated)  CPE inhibition            -2.89
 4  CCc1ccc(/C(C)=N/NC(=O)CNC(=O)/C=C/c2ccccc2OC)cc1  CPE inhibition              5.6
 5  COc1ccc(/C(C)=N/NC(=O)CNC(=O)/C=C/c2ccccc2OC)cc1  CPE inhibition             2.31
 6  O=C(NCc1ccc(F)cc1Cl)C1CCN(S(=O)(=O)N2CCCCC2)CC1  CPE inhibition             4.02
 7  Cc1nn(-c2ccccc2)c2nc(N)c(C#N)c(-c3ccc(O)c(O)c3)c12  CPE inhibition             39.2
 8        CCOc1ncccc1C(=O)Nc1nc(C(C)(C)C)cs1  CPE inhibition             0.68
 9  Cc1ccc(N2NC(=O)/C(=C/c3ccc(-c4ccc(Cl)c(C(=O)O)c4)o3)C2=O)cc1  CPE inhibition             0.38
10  CC(C)c1ccc(/C=C(\NC(=O)c2ccccc2)C(=O)NCCCN2CCOCC2)cc1  CPE inhibition             0.11
11          CCN(CC)C(=O)N1c2ccccc2Sc2ccccc21  CPE inhibition             11.5
12  COc1cccc(C(=O)NC(=S)Nc2ccc(Cl)c(C(=O)O)c2)c1  CPE inhibition             1.26
13  O=C1CC(c2ccccc2)CN1C(=O)c1ccccc1 (configuration not stated)  CPE inhibition             0.02
14        CC1(C)Cc2cccc(OCC(=O)Nc3nccs3)c2O1  CPE inhibition             1.37
15  CC(C)CCOC(=O)C(C)Sc1n[nH]c(=O)[nH]c1=O (configuration not stated)  CPE inhibition             8.79
16  Cc1nn(-c2ccc(F)cc2)c2nc(N)c(C#N)c(-c3ccc(O)c(O)c3)c12  CPE inhibition             0.04
17   O=C(/C=C/c1cccs1)Nc1sc2c(c1C(=O)O)CCCC2  CPE inhibition             16.6
18  Cc1ccc(Cl)cc1NC(=O)CSc1sc2c(O)cc(=O)[nH]c2c1C#N  CPE inhibition            -0.05
19  CC1(C)CC(=O)c2cc(C(=O)NC3CCSC3=O)c(=O)n(-c3ccc(Cl)cc3)c2C1 (configuration not stated)  CPE inhibition             0.72
20  COCCN1C(=O)C(CC(=O)Nc2ccc(C(C)=O)cc2)SC1=Nc1ccccc1 (configuration not stated)  CPE inhibition             2.47
21     CCOC(=O)CNC(=O)c1ccc2[nH]c3ccccc3c2c1  CPE inhibition             2.11
22       NNC(=O)c1csc(-c2cccc(C(F)(F)F)c2)n1  CPE inhibition             9.01
23    O=C(/C=C/c1ccco1)Nc1sc2c(c1C(=O)O)CCC2  CPE inhibition             3.96
24   CCn1c(CNS(=O)(=O)c2ccc(Br)cc2)n[nH]c1=S  CPE inhibition             0.55
25  O=C(C1=C[C@@H](c2coc3ccccc3c2=O)C[C@@H](OCc2ccc(CO)cc2)O1)N1CCN(Cc2ccc3c(c2)OCO3)CC1  CPE inhibition             4.77
26         CC(C)(C)c1csc(NC(=O)c2cccnc2Cl)n1  CPE inhibition             1.36
27   O=S(=O)(Nc1nc2ccccc2s1)c1cnc(Cl)c(Br)c1  CPE inhibition             0.69
28  O=C(CNC(=O)c1ccco1)N=Nc1c(O)[nH]c2ccc(Br)cc12  CPE inhibition             7.48
29  O=C(Nc1ccc(F)cc1F)C1CC(=O)N(Cc2ccccc2)C1 (configuration not stated)  CPE inhibition             0.74
30  Cc1ccc2c(c1)cc(CN(Cc1ccco1)C(=O)N1CCOCC1)c1nnnn12  CPE inhibition            -0.68
31  Cc1cccc(C)c1OCc1cc(C(=O)N2CCN(C3CCCC3)CC2)no1  CPE inhibition             0.09
32  O=C(NNC(=O)C12CC3CC(CC(C3)C1)C2)c1ccccn1  CPE inhibition             1.78

# credit: PubChem BioAssay AID2391
